assay_explanation: Therapeutic index, ratio of IC50 for human H9 cells to EC50 for HIV1 3B replication in human H9 cells
Assay type: cell-based
condition_description: read-out: Ratio IC50/EC50
The reader will find reported selectivity ratio values listed item by item below.
# output: bare number, no unit

# annotated cases, reported selectivity ratio shown
# smiles_code, measurement
records = [
    ("CC(=O)OC[C@]1(C)[C@@H]2C[C@H](OC(C)=O)[C@]34C[C@H](CC[C@H]3[C@]2(C)CC[C@H]1OC(C)=O)[C@@]1(CO1)C4", 163),
    ("C=C1C[C@@]23C[C@@H]1CC[C@H]2[C@]1(C)CC[C@@H](OC(=O)c2ccc4c(c2)OCO4)[C@](C)(COC(C)=O)[C@@H]1C[C@@H]3OC(=O)c1ccc2c(c1)OCO2", 184),
    ("C=C1C[C@@]23C[C@@H]1CC[C@H]2[C@]1(C)CC[C@@H](OC(=O)CC)[C@](C)(COC(C)=O)[C@@H]1C[C@@H]3OC(=O)CC", 6.1),
    ("C=C1C[C@@]23C[C@@H]1CC[C@H]2[C@]1(C)CC[C@@H](OC(=O)c2ccco2)[C@](C)(COC(C)=O)[C@@H]1C[C@@H]3OC(=O)c1ccco1", 3.49),
]

Now for another entry.
Bench note: what selectivity ratio did C=C1C[C@@]23C[C@@H]1CC[C@H]2[C@]1(C)CC[C@@H](OC(=O)c2ccc(C)cc2)[C@](C)(COC(C)=O)[C@@H]1C[C@@H]3OC(=O)c1ccc(C)cc1 show?
50.1
